Biological target: MRPS24 28S ribosomal protein S24, mitochondrial (Homo sapiens)
Construct: isoTOP-ABPP experiments performed in cell lysates (in vitro); endogenous in cells; host or cells: soluble proteome of human cancer cell lines (MDA-MB-231; Ramos and Jurkat also prepared)
Assay: competitive isoTOP-ABPP
Type: binding
Conditions: 50 uM, in vitro, sol, 231
Experimental: In vitro covalent fragment treatment for isoTOP-ABPP. All compounds were made up as solutions in DMSO (100×) and were used at a final concentration of 50 μM for activated esters and 100 μM for guanidinylating agents. […] R value calculation and processing. The ratios of light and heavy MS1 peaks for each unique peptide were quantified with a CIMAGE software using default parameters (3 MS1 acquisitions per peak and signal to noise threshold set to 2.5). […]
Catalogue of isoTOP-ABPP ratio (R) at liganded lysine Q96EL2_K94 readings, one per entry.
# answer = number (no unit)

O=C(Oc1ccc([N+](=O)[O-])cc1[N+](=O)[O-])c1ccc2ccccc2n1 [fragment 35]    1.3
O=C(CCc1coc2cc(F)ccc2c1=O)Oc1ccc([N+](=O)[O-])cc1[N+](=O)[O-] [fragment 36]    2.8
O=C(CC12CC3CC(CC(C3)C1)C2)Oc1ccc([N+](=O)[O-])cc1[N+](=O)[O-] [fragment 38]    3.1
CC(=O)Oc1ccc([N+](=O)[O-])cc1[N+](=O)[O-] [fragment 43, 2,4-Dinitrophenyl acetate]    1.1

Measured isoTOP-ABPP ratio (R) at liganded lysine Q96EL2_K94, O=C(Oc1ccc([N+](=O)[O-])cc1[N+](=O)[O-])C1CCN(C(=O)OCc2ccccc2)CC1 [fragment 34] : 1.4

Measured isoTOP-ABPP ratio (R) at liganded lysine Q96EL2_K94, O=C(Oc1ccc([N+](=O)[O-])cc1[N+](=O)[O-])C(c1ccccc1)(c1ccccc1)c1ccccc1 [fragment 42, 2,4-Dinitrophenyl 2,2,2-triphenylacetate] : 1.5

Measured isoTOP-ABPP ratio (R) at liganded lysine Q96EL2_K94, O=C(Oc1ccc([N+](=O)[O-])cc1[N+](=O)[O-])c1ccc(-c2ccccc2)cc1 [fragment 37] : 0.9

Measured isoTOP-ABPP ratio (R) at liganded lysine Q96EL2_K94, CC(C)(C)OC(=O)NCCCC(=O)Oc1ccc([N+](=O)[O-])cc1[N+](=O)[O-] [fragment 41] : 1.3

Measured isoTOP-ABPP ratio (R) at liganded lysine Q96EL2_K94, O=C(Oc1ccc([N+](=O)[O-])cc1[N+](=O)[O-])c1ccc(Oc2ccccc2)cc1 [fragment 39, 2,4-Dinitrophenyl 4-phenoxybenzoate] : 1.2

These entries and their values trace back to patent US20210255193A1.
